Test system: Dengue virus
Assay Comment: Inhibition of Dengue virus NS2B-NS3 protease expressed in Escherichia coli BL 21 (DE3) using Abz-Nle-Lys-Arg-Arg-Ser-3-(NO2)Tyr as substrate at 50 uM after 15 mins
Readout Kind: inhibition (%)
Just the number in %, nothing appended.

Hey, Dengue virus data for CCCC[C@H](NC(=O)[C@H](CCCCN)NC(=O)[C@H](CCCNC(=N)N)NC(=O)c1ccc(/C=C2\SC(=S)N(C3CCCCC3)C2=O)cc1)C(N)=O : inhibition came out at 99.2

Hey, Dengue virus data for CCCC[C@H](NC(=O)[C@H](CCCCN)NC(=O)[C@H](CCCNC(=N)N)NC(=O)c1ccc(/C=C2\SC(=S)N(CC)C2=O)cc1)C(N)=O : inhibition came out at 93.4

Hey, Dengue virus data for CCCC[C@H](NC(=O)[C@H](CCCNC(=N)N)NC(=O)[C@H](CCCCN)NC(=O)c1ccc(/C=C2\SC(=O)N(Cc3ccccc3)C2=O)cc1)C(N)=O : inhibition came out at 72.1

---

Tested on: Dengue virus
Assay Comment: Inhibition of Dengue virus NS2B-NS3 protease expressed in Escherichia coli BL 21 (DE3) using Abz-Nle-Lys-Arg-Arg-Ser-3-(NO2)Tyr as substrate at 50 uM after 15 mins
Assign inhibition to each entry below.
Just the number in %, nothing appended.

Query CCCC[C@H](NC(=O)[C@H](CCCCN)NC(=O)[C@H](CCCNC(=N)N)NC(=O)[C@H](Cc1ccccc1)N1C(=O)/C(=C/c2ccc(OC)c(OC)c2)SC1=S)C(N)=O yields inhibition of 60.8

Query CCCC[C@H](NC(=O)[C@H](CCCCN)NC(=O)[C@H](CCCNC(=N)N)NC(=O)c1ccc(/C=C2\SC(=O)N(CC)C2=O)cc1)C(N)=O yields inhibition of 96.5

Query CCCC[C@H](NC(=O)[C@H](CCCCN)NC(=O)[C@H](CCCNC(=N)N)NC(=O)c1ccc(/C=C2\SC(=S)N(CCc3ccccc3)C2=O)cc1)C(N)=O yields inhibition of 99.6

Query CCCC[C@H](NC(=O)[C@H](CCCCN)NC(=O)[C@H](CCCNC(=N)N)NC(=O)c1ccc(/C=C2\SC(=S)N(c3ccccc3)C2=O)cc1)C(N)=O yields inhibition of 90

Query CCCC[C@H](NC(=O)[C@H](CCCCN)NC(=O)[C@H](CCCNC(=N)N)NC(=O)c1ccc(/C=C2\SC(=S)N(CCC)C2=O)cc1)C(N)=O yields inhibition of 94.2

Query CCCC[C@H](NC(=O)[C@H](CCCCN)NC(=O)[C@H](CCCNC(=N)N)NC(=O)c1ccc(/C=C2\SC(=O)N(CCOC(C)=O)C2=O)cc1)C(N)=O yields inhibition of 97.6

---

Measured On: Prothrombin (Homo sapiens)
Assay Comment: Inhibition of thrombin (unknown origin) using Boc-Val-Pro-Arg-AMC as substrate at 25 uM after 10 mins by continuous fluorimetric assay
Active and inactive are the calls of the source. The rule behind the calls is not given here.
Readout Kind: inhibition

compound=CCCC[C@H](NC(=O)[C@H](CCCCN)NC(=O)[C@H](CCCNC(=N)N)NC(=O)c1ccc(/C=C(\C#N)C(=O)NC2CC2)cc1)C(N)=O value=13.4%
compound=C=CCN1C(=O)S/C(=C\c2ccc(C(=O)N[C@@H](CCCNC(=N)N)C(=O)N[C@@H](CCCCN)C(=O)N[C@@H](CCCC)C(N)=O)cc2)C1=O value=12.5%
compound=CCCC[C@H](NC(=O)[C@H](CCCCN)NC(=O)[C@H](CCCNC(=N)N)NC(=O)c1ccc(/C=C2\SC(=S)N(c3ccc(F)cc3)C2=O)cc1)C(N)=O value=6.5%
compound="CCCC[C@H](NC(=O)[C@H](CCCCN)NC(=O)[C@H](CCCNC(=N)N)NC(=O)c1ccc(/C=C2\\SC(=S)N(CC3CCCO3)C2=O)cc1)C(N)=O (stereo partly drawn)" value=13.3%
compound="CCCC[C@H](NC(=O)[C@H](CCCCN)NC(=O)[C@H](CCCNC(=N)N)NC(=O)CC1SC(=S)N(Cc2ccc(OC)cc2)C1=O)C(N)=O (stereo partly drawn)" value=76.8%
compound=CCCC[C@H](NC(=O)[C@H](CCCCN)NC(=O)[C@H](CCCNC(=N)N)NC(=O)c1ccc(/C=C2\SC(=S)N(C3CC3)C2=O)cc1)C(N)=O value=6.3%
compound=CCCC[C@H](NC(=O)[C@H](CCCCN)NC(=O)[C@H](CCCNC(=N)N)NC(=O)c1ccc(/C=C2\SC(=O)N(Cc3ccccc3)C2=O)cc1)C(N)=O value=17.3%
compound=CCCC[C@@H](NC(=O)[C@@H](CCCCN)NC(=O)[C@@H](CCCNC(=N)N)NC(=O)c1ccc(/C=C2\SC(=O)N(Cc3ccccc3)C2=O)cc1)C(N)=O value=11.1%

Query CCCC[C@H](NC(=O)[C@H](CCCCN)NC(=O)[C@H](CCCNC(=N)N)NC(=O)c1cccc(/C=C2\SC(=S)NC2=O)c1)C(N)=O yields inhibition of 17.6%

Query CCCC[C@H](NC(=O)[C@H](CCCCN)NC(=O)[C@H](CCCNC(=N)N)NC(=O)/C=C/c1ccccc1)C(N)=O yields inhibition of inactive

Query CCCC[C@H](NC(=O)[C@H](CCCCN)NC(=O)[C@H](CCCNC(=N)N)NC(=O)c1ccc(/C=C2\SC(=S)N(C3CCCCC3)C2=O)cc1)C(N)=O yields inhibition of 14.2%

Query N=C(N)NCCC[C@H](NC(=O)c1ccc(/C=C2\SC(=O)N(Cc3ccccc3)C2=O)cc1)C(=O)N[C@@H](CCCCN)C(N)=O yields inhibition of inactive

Query CCCC[C@H](NC(=O)[C@H](CCCCN)NC(=O)[C@H](CCCNC(=N)N)NC(=O)c1ccc(/C=C2\SC(=O)N(Cc3ccc(C)cc3)C2=O)cc1)C(N)=O yields inhibition of 9.3%

---

Tested on: West Nile virus
Assay Comment: Inhibition of West Nile virus NS2B-NS3 protease expressed in Escherichia coli BL 21 (DE3) using Abz-Gly-Leu-Lys-Arg-Gly-Gly-3-(NO2)Tyr as substrate at 50 uM after 15 mins
Assign inhibition to each entry below.
Just the number in %, nothing appended.

Query CCCC[C@H](NC(=O)[C@H](CCCCN)NC(=O)[C@H](CCCNC(=N)N)NC(=O)c1ccc(/C=C2\SC(=O)N(c3ccc(C)cc3)C2=O)cc1)C(N)=O yields inhibition of 42.4

Query CCCC[C@H](NC(=O)[C@H](CCCCN)NC(=O)[C@H](CCCNC(=N)N)NC(=O)c1ccc(/C=C2\SC(=O)N(Cc3ccccc3)C2=O)cc1)C(N)=O yields inhibition of 57.9

Query CCCC[C@H](NC(=O)[C@H](CCCCN)NC(=O)[C@H](CCCNC(=N)N)NC(=O)c1ccc(/C=C2\SC(=O)N(CCOC(C)=O)C2=O)cc1)C(N)=O yields inhibition of 41.4

---

Test system: Dengue virus
Assay Comment: Inhibition of Dengue virus NS2B-NS3 protease expressed in Escherichia coli BL 21 (DE3) using Abz-Nle-Lys-Arg-Arg-Ser-3-(NO2)Tyr as substrate at 50 uM after 15 mins
Readout Kind: inhibition (%)
Just the number in %, nothing appended.

Hey, Dengue virus data for CCCC[C@H](NC(=O)[C@H](CCCCN)NC(=O)[C@H](CCCNC(=N)N)NC(=O)c1ccc(/C=C2\SC(=O)N(CCC)C2=O)cc1)C(N)=O : inhibition came out at 94.5

Hey, Dengue virus data for CCCC[C@H](NC(=O)[C@H](CCCCN)NC(=O)[C@H](CCCNC(=N)N)NC(=O)/C=C/c1ccccc1)C(N)=O : inhibition came out at 82.9

Hey, Dengue virus data for CCCC[C@H](NC(=O)[C@H](CCCC)NC(=O)[C@H](CCCNC(=N)N)NC(=O)c1ccc(/C=C2\SC(=O)N(Cc3ccccc3)C2=O)cc1)C(N)=O : inhibition came out at 81.4

Hey, Dengue virus data for C=CCN1C(=O)S/C(=C\c2ccc(C(=O)N[C@@H](CCCNC(=N)N)C(=O)N[C@@H](CCCCN)C(=O)N[C@@H](CCCC)C(N)=O)cc2)C1=O : inhibition came out at 93.2

---

Test system: Dengue virus
Assay Comment: Inhibition of Dengue virus NS2B-NS3 protease expressed in Escherichia coli BL 21 (DE3) using Abz-Nle-Lys-Arg-Arg-Ser-3-(NO2)Tyr as substrate at 50 uM after 15 mins
# binarize inhibition: threshold 90% inclusive, high side Yes, low side No

Kindly determine if inhibition recorded for CCCCC(C(=O)OC)N1C(=O)/C(=C/c2ccc(C(=O)N[C@@H](CCCNC(=N)N)C(=O)N[C@@H](CCCCN)C(=O)N[C@@H](CCCC)C(N)=O)cc2)SC1=S (stereo not given in full) is above or exactly 90%.
Yes

Kindly determine if inhibition recorded for CCCC[C@H](NC(=O)c1ccc(/C=C2\SC(=O)N(Cc3ccccc3)C2=O)cc1)C(=O)N[C@@H](CCCCN)C(=O)N[C@@H](CCCNC(=N)N)C(N)=O is above or exactly 90%.
No

Kindly determine if inhibition recorded for CCCC[C@H](NC(=O)[C@H](CCCCN)NC(=O)[C@H](CCCNC(=N)N)NC(=O)c1ccc(/C=C2\SC(=O)N(Cc3ccc(F)cc3)C2=O)cc1)C(N)=O is above or exactly 90%.
Yes

Kindly determine if inhibition recorded for CCCC[C@H](NC(=O)[C@H](CCCCN)NC(=O)[C@H](CCCNC(=N)N)NC(=O)c1ccc(/C=C2\SC(=O)N(Cc3ccccc3)C2=O)cc1)C(N)=O is above or exactly 90%.
Yes

Kindly determine if inhibition recorded for C=CCN1C(=O)/C(=C/c2ccc(C(=O)N[C@@H](CCCNC(=N)N)C(=O)N[C@@H](CCCCN)C(=O)N[C@@H](CCCC)C(N)=O)cc2)SC1=S is above or exactly 90%.
Yes

Kindly determine if inhibition recorded for CCCC[C@H](NC(=O)[C@H](CCCCN)NC(=O)[C@H](CCCNC(=N)N)NC(=O)c1ccc(/C=C2\SC(=S)N(CC3CCCO3)C2=O)cc1)C(N)=O (stereo not given in full) is above or exactly 90%.
Yes

Kindly determine if inhibition recorded for CCCC[C@H](NC(=O)[C@H](CCCCN)NC(=O)[C@H](CCCNC(=N)N)NC(=O)c1ccc(/C=C2\NC(=S)N(Cc3ccccc3)C2=O)cc1)C(N)=O is above or exactly 90%.
No

Kindly determine if inhibition recorded for CCCC[C@H](NC(=O)[C@H](CCCCN)NC(=O)[C@H](CCCNC(=N)N)NC(=O)c1ccc(/C=C2\SC(=S)N(Cc3ccccc3)C2=O)cc1)C(N)=O is above or exactly 90%.
Yes

Kindly determine if inhibition recorded for CCCC[C@H](NC(=O)[C@H](CCCCN)NC(=O)[C@H](CCCNC(=N)N)NC(=O)c1ccc(/C=C2\SC(=S)N(Cc3ccc(OC)cc3)C2=O)cc1)C(N)=O is above or exactly 90%.
Yes

Kindly determine if inhibition recorded for CCCC[C@H](NC(=O)[C@H](CCCNC(=N)N)NC(=O)[C@H](CCCNC(=N)N)NC(=O)c1ccc(/C=C2\SC(=O)N(Cc3ccccc3)C2=O)cc1)C(N)=O is above or exactly 90%.
Yes

Kindly determine if inhibition recorded for CCCC[C@H](NC(=O)[C@H](CCCCN)NC(=O)[C@H](CCCCN)NC(=O)c1ccc(/C=C2\SC(=O)N(Cc3ccccc3)C2=O)cc1)C(N)=O is above or exactly 90%.
No

Kindly determine if inhibition recorded for CCCC[C@H](NC(=O)[C@H](CCCCN)NC(=O)[C@H](CCCNC(=N)N)NC(=O)c1cccc(/C=C2\SC(=S)NC2=O)c1)C(N)=O is above or exactly 90%.
No

Kindly determine if inhibition recorded for CCCC[C@H](NC(=O)[C@H](CCCCN)NC(=O)[C@H](CCCNC(=N)N)NC(=O)c1ccc(/C=C2\SC(=O)NC2=O)cc1)C(N)=O is above or exactly 90%.
No

Kindly determine if inhibition recorded for CCCC[C@H](NC(=O)[C@H](CCCCN)NC(=O)[C@H](CCCNC(=N)N)NC(=O)c1ccc(/C=C2\SC(=O)N(C(C)C)C2=O)cc1)C(N)=O is above or exactly 90%.
Yes
